Biological target: Ubiquitin-activating enzyme e1, putative (Leishmania donovani (strain BPK282A1)) (UniProt E9BSI1)
Sequence (E9BSI1 as listed by the source): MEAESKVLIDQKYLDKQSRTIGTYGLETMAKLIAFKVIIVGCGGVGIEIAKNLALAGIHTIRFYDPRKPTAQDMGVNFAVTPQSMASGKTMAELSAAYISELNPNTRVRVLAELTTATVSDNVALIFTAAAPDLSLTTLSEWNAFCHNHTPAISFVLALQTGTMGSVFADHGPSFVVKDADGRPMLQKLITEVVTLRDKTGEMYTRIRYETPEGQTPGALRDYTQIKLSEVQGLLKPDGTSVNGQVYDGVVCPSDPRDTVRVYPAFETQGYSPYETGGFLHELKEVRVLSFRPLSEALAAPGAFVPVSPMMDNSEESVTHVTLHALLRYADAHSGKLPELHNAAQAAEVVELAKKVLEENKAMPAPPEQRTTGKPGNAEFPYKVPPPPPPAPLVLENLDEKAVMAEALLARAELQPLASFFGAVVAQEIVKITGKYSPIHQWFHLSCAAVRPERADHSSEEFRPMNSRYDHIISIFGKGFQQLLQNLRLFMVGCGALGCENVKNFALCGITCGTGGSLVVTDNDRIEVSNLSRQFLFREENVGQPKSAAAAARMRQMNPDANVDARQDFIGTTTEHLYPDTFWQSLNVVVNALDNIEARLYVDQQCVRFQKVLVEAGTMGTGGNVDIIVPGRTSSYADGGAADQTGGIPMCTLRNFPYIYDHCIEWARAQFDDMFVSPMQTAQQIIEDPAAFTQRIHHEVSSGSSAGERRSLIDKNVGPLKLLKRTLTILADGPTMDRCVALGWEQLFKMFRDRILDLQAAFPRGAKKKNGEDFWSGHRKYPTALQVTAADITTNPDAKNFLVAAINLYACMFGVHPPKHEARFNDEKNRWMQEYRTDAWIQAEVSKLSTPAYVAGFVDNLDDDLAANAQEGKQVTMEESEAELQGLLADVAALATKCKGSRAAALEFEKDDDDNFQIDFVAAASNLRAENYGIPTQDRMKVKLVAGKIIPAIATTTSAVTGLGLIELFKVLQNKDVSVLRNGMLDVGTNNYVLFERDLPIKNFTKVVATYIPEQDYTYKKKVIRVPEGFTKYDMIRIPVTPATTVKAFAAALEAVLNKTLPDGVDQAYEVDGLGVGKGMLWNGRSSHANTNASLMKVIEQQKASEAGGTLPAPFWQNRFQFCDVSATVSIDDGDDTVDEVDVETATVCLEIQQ
Experiment: Leishmania donovani Ubiquitin Activating Enzyme (LdE1)
Format: functional
Set-up: scale not given: direction of the effect not stated beside the values
Details: 30 µM
Results with a measured potency or affinity are listed apart.
Please respond with fulfilled when measured Percent Effect is strictly beneath 10%, and with not fulfilled in all other cases.

[[record]]
molecule = "CCc1c(C)nc2n(c1=O)CC(C(=O)Nc1nccs1)CS2 (configuration not stated)"
group_label = "not fulfilled"

[[record]]
molecule = "CC(c1nc(C2CC2)no1)N1CCN(CCOCC(F)(F)F)CC1 (configuration not stated)"
group_label = "fulfilled"

[[record]]
molecule = "COc1ccc2nnc(CCCC(=O)NCCC3=CCCCC3)n2n1"
group_label = "not fulfilled"


Given CC(=O)N(C)c1nc(CN2CCOC(Cn3cccn3)C2)cs1 (configuration not stated) , is recorded Percent Effect strictly lower than 10%? fulfilled

Given CCCS(=O)(=O)N1CCC2(CN(c3ccsc3)C(=O)CN2C)C1 (configuration not stated) , is recorded Percent Effect strictly lower than 10%? fulfilled

Given COC[C@]12COC[C@H]1CN(Cc1cc(OC)cc(OC)c1)C2 , is recorded Percent Effect strictly lower than 10%? fulfilled

Given Cc1nc(C)n(C2CCCN(C(=O)c3cc(C(N)=O)cs3)C2)n1 (configuration not stated) , is recorded Percent Effect strictly lower than 10%? not fulfilled

Given O=C(C1CCOCC1)N1C[C@@H]2[C@@H](C1)OCC(=O)N2CC1CC1 , is recorded Percent Effect strictly lower than 10%? fulfilled

Given CN(C)S(=O)(=O)N1CCC(Oc2cnccn2)CC1 , is recorded Percent Effect strictly lower than 10%? not fulfilled

---

Target: Arginase-2, mitochondrial (Homo sapiens)
Test: in vitro enzyme assay to detect the production of urea directly proportional to the activity of Arginase II; also: in the data most compounds retested in dose-response had high values
Format: functional
Set-up: scale not given: direction of the effect not stated beside the values
Conditions: 33.3 µM
Readout Label: Percent Effect (%)
Reply numerically in %, unit not repeated.

Some solved entries appear below for comparison.
[[record]]
compound = "CS(=O)(=O)N1CCC2(CN(C(=O)c3cccnc3)C2)C1"
readout_label = "Percent Effect"
units_of_measure = "%"
value = -2.79

[[record]]
compound = "Fc1cnc(N2CCn3cc(CNc4ccccn4)nc3C2)nc1"
readout_label = "Percent Effect"
units_of_measure = "%"
value = -56.1

[[record]]
compound = "COCCNc1nc2c(c(NCc3ccncc3)n1)CCNCC2"
readout_label = "Percent Effect"
units_of_measure = "%"
value = -3.81

[[record]]
compound = "Cc1cnn(C2CCCN(C(=O)c3ccn(C)c(=O)c3)C2)c1 (stereo not given)"
readout_label = "Percent Effect"
units_of_measure = "%"
value = 5.68

[[record]]
compound = "COc1ccccc1CC1CCCN(CC(N)=O)C1 (stereo not given)"
readout_label = "Percent Effect"
units_of_measure = "%"
value = 2.32

[[record]]
compound = "CC(C)Nc1ncnc2c1CCN(C(=O)Cc1ccccn1)CC2"
readout_label = "Percent Effect"
units_of_measure = "%"
value = -10.4

[[record]]
compound = "Cc1cc(CN2CCOC(CN(C)C)C2)no1 (stereo not given)"
readout_label = "Percent Effect"
units_of_measure = "%"
value = 1.66

[[record]]
compound = "Cn1ncc2c1CCCC2NCc1ccc(Cl)s1 (stereo not given)"
readout_label = "Percent Effect"
units_of_measure = "%"
value = 2.74

[[record]]
compound = "Cc1ccc2cnn(CCC(=O)Nc3c(C)nn(C)c3C)c2c1"
readout_label = "Percent Effect"
units_of_measure = "%"
value = -4.14

[[record]]
compound = "c1cncc(COCc2nnc3n2CCN(Cc2ccoc2)C3)c1"
readout_label = "Percent Effect"
units_of_measure = "%"
value = -8.28


// recorded Percent Effect for O=C(O)c1c[nH]c2cc(NS(=O)(=O)c3cccc(Cl)c3F)ccc12 : 5.69

// recorded Percent Effect for CCc1csc(CCNC(=O)C2CC(=O)N(C(C)C)C2)n1 (stereo not given) : -11

// recorded Percent Effect for COCCCC1(CO)CCCN(CCc2ccccc2)C1 (stereo not given) : 0.909

// recorded Percent Effect for N#Cc1ccc(C(=O)NCCCNc2ccc(C(F)(F)F)cn2)cc1 : -0.766
